Origin of values: ChEMBL document CHEMBL1144136

target: Protease (Human immunodeficiency virus 1); assay: Inhibition of HIV1 protease at 100 uM
measured-parameter: inhibition

Solved cases (2 shown):
{"columns": ["smiles-str", "recorded-result"],
 "data": [
  ["C/C=C(/C)C(=O)O[C@H]1[C@H](O)C(C)(C)C[C@H]2C3=CC[C@@H]4[C@@]5(C)CC[C@H](O[C@@H]6O[C@H](C(=O)O)[C@@H](O[C@@H]7O[C@H](CO)[C@@H](O)[C@H](O)[C@H]7O)[C@H](O)[C@H]6O[C@@H]6O[C@H](CO)[C@@H](O)[C@H](O)[C@H]6O)[C@](C)(CO)[C@@H]5CC[C@@]4(C)[C@]3(C)C[C@@H](O)[C@]21COC(C)=O", "34%"],
  ["C/C=C(/C)C(=O)OC[C@@]12[C@H](O)C[C@]3(C)C(=CC[C@@H]4[C@@]5(C)CC[C@H](O[C@@H]6O[C@H](C(=O)O)[C@@H](O[C@@H]7O[C@H](CO)[C@@H](O)[C@H](O)[C@H]7O)[C@H](O)[C@H]6O[C@@H]6O[C@H](CO)[C@@H](O)[C@H](O)[C@H]6O)[C@](C)(CO)[C@@H]5CC[C@]43C)[C@@H]1CC(C)(C)[C@@H](O)[C@@H]2O", "12.5%"]
]}

Shifting focus to the compound that follows.
Exercise: Please look at this compound and report its inhibition: C/C=C(\C)C(=O)OC[C@@]12[C@H](O)C[C@]3(C)C(=CC[C@@H]4[C@@]5(C)CC[C@H](O[C@@H]6O[C@H](C(=O)O)[C@@H](O[C@@H]7O[C@H](CO)[C@@H](O)[C@H](O)[C@H]7O)[C@H](O)[C@H]6O[C@@H]6O[C@H](CO)[C@@H](O)[C@H](O)[C@H]6O)[C@](C)(CO)[C@@H]5CC[C@]43C)[C@@H]1CC(C)(C)[C@@H](O)[C@@H]2O
Solution: 15.9%
